# Test system: SNB-75
# Experimental protocol: NCI tumour cell line growth inhibition, 48 h
Active and inactive are the calls of the source. Cut-off read from the data, not from the text of the source: active = GI50 up to about 1.1 µM and inactive = higher.

{"Compound": "O=C(CCCCCCCCC(=O)NN1C(=O)/C(=C\\c2ccc(O)c(O)c2)SC1c1ccc(Cl)cc1)NN1C(=O)/C(=C\\c2ccc(O)c(O)c2)SC1c1ccc(Cl)cc1 (configuration not stated)", "GI50": "29.9 µM (inactive)"}
{"Compound": "O=[N+]([O-])c1ccc(CSCc2ccc(Cl)cc2)cc1", "GI50": "> 100 µM (inactive)"}
{"Compound": "CN(Cc1cnc2nc(N)nc(N)c2n1)c1ccc(C(=O)NCCS(=O)(=O)O)cc1", "GI50": "> 100 µM (inactive)"}
{"Compound": "Cc1c(CCN2CCOCC2)c(N2CCOCC2)n2c(nc3ccccc32)c1C#N", "GI50": "> 10 µM (inactive)"}
{"Compound": "COC(=O)c1ccccc1N(C(=O)c1ccccc1)c1ccccc1C", "GI50": "> 100 µM (inactive)"}
{"Compound": "Cc1cc(Cc2c(F)c(F)c(C(c3cc(C)no3)c3c(F)c(F)c(F)c(F)c3F)c(F)c2F)on1 (configuration not stated)", "GI50": "86.7 µM (inactive)"}
{"Compound": "CC(=N\\N=C\\c1ccccn1)/C(C)=N/N=C/c1ccccn1", "GI50": "> 100 µM (inactive)"}

====

# System: OVCAR-4
# Experimental protocol: NCI tumour cell line growth inhibition, 48 h
The source made the active and inactive calls. No stated cut-off is given here; in the data, active = GI50 up to about 1.1 µM and inactive = higher.
Possible outcomes: True = active, False = inactive

{"Compound": "O=C1/C(=C/c2cccc(F)c2)CCCc2ccccc21", "Class": "False"}
{"Compound": "CC(CO)C1=CC(C#CCOCc2ccccc2)N(C(=O)Oc2ccccc2)c2ccccc21 (centres undefined)", "Class": "False"}
{"Compound": "CC1CC(C[N+](=O)[O-])CC2(C1)OCCO2 (centres undefined)", "Class": "False"}
{"Compound": "CNC(=O)C(C)NC(=O)C(Cc1ccccc1)NC(=O)c1ccccc1 (centres undefined)", "Class": "False"}
{"Compound": "CN(C)c1ccc(C2CC(=O)C(C#N)=C(c3ccccc3)NN2C)cc1 (centres undefined)", "Class": "False"}
{"Compound": "O=C1/C(=C/c2ccc(Cl)cc2)CCC1CNc1ccc(Cl)cc1 (centres undefined)", "Class": "False"}
{"Compound": "BrCc1ccc2ccc3ccc(CBr)nc3c2n1", "Class": "False"}
{"Compound": "COc1c(Cl)c(Cl)c(OC)c2c1C(=O)C=CC2=O", "Class": "False"}
{"Compound": "NC(=O)/N=C1/CCC2C3CCCC2C13", "Class": "False"}
{"Compound": "CC(C)c1ccc(O)c(Cc2cc(C(C)C)cc(Cc3cc(C(C)C)ccc3O)c2O)c1", "Class": "False"}
{"Compound": "C(=C\\c1c2oc(-c3ccccc3)cc(-c3ccccc3)c-2c2ccccc12)/C=C1\\c2ccccc2-c2c(-c3ccccc3)cc(-c3ccccc3)[o+]c21.[O-][Cl+3]([O-])([O-])[O-]", "Class": "False"}
{"Compound": "Nc1ccc2ccc(N3CCNCC3)nc2n1", "Class": "False"}
{"Compound": "C=C(C)[C@]12CC(C)C34OC(/C=C\\C=C\\CCCCCCCCC)(O[C@@H]1[C@@H]3[C@@H]1O[C@]1(CO)[C@@H](O)[C@]1(O)C(=O)C(C)=C[C@@H]41)O2 (some centres undefined)", "Class": "False"}
{"Compound": "O=C1[C@@H]2C(c3ccccc3Br)=NO[C@@H]2C(=O)N1c1ccc(Cc2ccc(N3C(=O)[C@H]4C(c5ccccc5Br)=NO[C@H]4C3=O)cc2)cc1", "Class": "False"}
{"Compound": "CC[C@@]1(O)C(=O)OCc2c1cc1n(c2=O)Cc2cc3ccccc3nc2-1 [CAMPTOTHECIN]", "Class": "True"}
{"Compound": "CC(=N\\c1ccncc1)/C(C)=N/c1ccncc1", "Class": "False"}
{"Compound": "CC(C)(CCCCC(C)(C)[N+](C)(C)C)[N+](C)(C)C", "Class": "False"}
{"Compound": "COc1cc(/C=C2\\N=C(c3ccccc3)N(C3Nc4cc5c(cc4S3)NC(N3C(=O)/C(=C/c4cc(OC)c(OC)c(OC)c4)N=C3c3ccccc3)S5)C2=O)cc(OC)c1OC (centres undefined)", "Class": "False"}
{"Compound": "CC/C=C\\C/C=C\\C/C=C\\CCCCCCCC(=O)OC [METHYL LINOLENATE]", "Class": "False"}
{"Compound": "CCOC(=O)c1ccc(/N=C/c2ccc(N(CCC#N)S(=O)(=O)c3ccccc3)cc2C)cc1", "Class": "False"}
{"Compound": "Cc1ccc([S+](c2ccccc2)c2cc(C)ccc2C)cc1.O=C(OC(C(=O)[O-])C(OC(=O)c1ccccc1)C(=O)O)c1ccccc1 (centres undefined)", "Class": "False"}
{"Compound": "CCCN(CCC)c1c([N+](=O)[O-])cc(C(=O)N(CCO)CCO)cc1[N+](=O)[O-]", "Class": "False"}
{"Compound": "O=C(/C=C\\c1ccccc1)Oc1ccc(/C=C2\\CCCCC2=O)cc1", "Class": "False"}
{"Compound": "Cn1c2ccccc2c2cc(N3CCCC3)c3c(c21)C(=O)N(c1ccccc1)C3=O", "Class": "False"}
{"Compound": "O=C1Nc2ccc(Cl)cc2/C1=C\\c1c(Cl)nc2sccn12", "Class": "False"}
{"Compound": "COc1cc(Cl)c(CC(=O)c2c[nH]c3ccccc23)cc1OC", "Class": "False"}
{"Compound": "CCOC(=O)c1c(-c2ccc(OC)cc2)c(C#N)c(=S)n(C2OC(COC(C)=O)C(OC(C)=O)C(OC(C)=O)C2OC(C)=O)c1-c1ccccc1 (centres undefined)", "Class": "False"}
{"Compound": "CC(C)(C)NCCC(O)c1cc(C(F)(F)F)nc2c(C(F)(F)F)cccc12 (centres undefined)", "Class": "False"}
{"Compound": "CC(C)(Cl)C(Br)CC/C(=C/CBr)CBr.CC(C)(Cl)C(Br)CC/C(=C\\CBr)CBr (centres undefined)", "Class": "False"}
{"Compound": "Oc1ccc2c(c1)OCC1(O)Cc3cc(O)c(O)cc3C21 (centres undefined)", "Class": "False"}
{"Compound": "O=C1CCc2c(sc3ncnc(Nc4cccc(Br)c4)c23)C1", "Class": "False"}
{"Compound": "COc1cccc2c1C(=O)C=CC2=O", "Class": "False"}
{"Compound": "N#Cc1ccccc1NC(=O)/C(=N\\Nc1ccc([N+](=O)[O-])cc1)C1C(=O)NC(=O)NC1=O", "Class": "False"}
{"Compound": "C=C1C(=O)OC2C1C(OC(=O)/C(=C/C)COC(C)=O)CC1(CO1)C1C(OC(=O)/C(=C/C)CO)C=C(C)C21 (centres undefined)", "Class": "False"}
{"Compound": "O=c1oc2ccccc2[n+]([O-])c1-c1ccccc1", "Class": "False"}
{"Compound": "C=CC(C)(C)C1(CC(OC)OC)C(=O)N(C)c2ccccc21 (centres undefined)", "Class": "False"}
{"Compound": "CN1C(=O)C(C(=O)Nc2ccccn2)C2C[C@@]1(C)Oc1ccccc12 (some centres undefined)", "Class": "False"}
{"Compound": "O=C1CCC2(CCO1)OCCO2", "Class": "False"}
{"Compound": "COc1cc(C2C(Cl)C(=O)N2c2ccc(Br)cc2)cc(I)c1O (centres undefined)", "Class": "False"}
